Target: Human (6-His) Sortilin (Homo sapiens)
Sequence (Q99523 78-755 limits assumed): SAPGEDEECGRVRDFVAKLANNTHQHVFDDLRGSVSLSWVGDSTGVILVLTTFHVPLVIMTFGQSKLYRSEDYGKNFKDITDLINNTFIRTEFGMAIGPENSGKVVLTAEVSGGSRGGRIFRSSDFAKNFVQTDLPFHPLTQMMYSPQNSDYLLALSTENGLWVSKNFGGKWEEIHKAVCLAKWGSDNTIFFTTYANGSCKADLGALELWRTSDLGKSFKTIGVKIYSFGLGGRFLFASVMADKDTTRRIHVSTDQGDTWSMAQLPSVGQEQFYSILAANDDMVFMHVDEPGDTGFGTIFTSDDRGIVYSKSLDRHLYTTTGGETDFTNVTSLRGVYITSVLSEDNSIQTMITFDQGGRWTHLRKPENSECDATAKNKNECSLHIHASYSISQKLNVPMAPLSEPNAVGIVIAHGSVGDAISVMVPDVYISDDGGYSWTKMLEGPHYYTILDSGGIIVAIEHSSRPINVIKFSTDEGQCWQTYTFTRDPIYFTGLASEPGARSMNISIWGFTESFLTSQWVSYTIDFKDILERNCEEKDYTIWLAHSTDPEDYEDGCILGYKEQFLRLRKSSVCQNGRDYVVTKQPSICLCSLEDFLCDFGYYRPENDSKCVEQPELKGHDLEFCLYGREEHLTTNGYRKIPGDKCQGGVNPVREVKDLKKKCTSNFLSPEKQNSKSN
pKd: −log10 of the molar value.
reported endpoint: pKd

a: CC(=O)NCC(=O)N[C@@](C)(CCC(C)(C)C)C(=O)O [Example 1]
b: CC[C@H](C)[C@H](NC(C)=O)C(=O)N[C@@](C)(CCC(C)(C)C)C(=O)O [Example 3]
// compare measured pKd between a and b ; output the lower one Returns: label corresponding to the selected item.
a
